What composite z-score was measured for each of the following?
target: Torsin-1A-interacting protein 1 (Homo sapiens); assay: LAP1 binders from COS7 cell lysate, primary screen, small-molecule microarray, 635/667 nm fluorescence (AID 1116); settings: COS7-hLAP1 lysate binding, 635 nm fluorescence, higher = more signal
Write the number on its own, no unit after it.

Note to self: composite z-score recorded for `COc1ccc([Si](C)(C)[C@H]2[C@H](CCn3cc([C@H](O)c4ccccc4)nn3)O[C@@]3(C(=O)N(Cc4ccc(N5CCC5=O)cc4)c4ccccc43)[C@@H]2C)cc1` was 0.273

GET /value?item= `C[C@]1(C(=O)NCCN2CCOCC2)c2ccccc2C(=O)N(Cc2ccc(OC(F)(F)F)cc2)[C@H]1c1ccc(CO)cc1` &field=composite z-score returns 0.836

// recorded composite z-score for `O=C1NCC(=O)N2[C@@H]1C[C@@H](C(=O)O)[C@H]2c1ccc(O)cc1` : -0.0956

Input O=C1C2C=CC(C(O)c3cc(C(F)(F)F)cc(C(F)(F)F)c3)N(Nc3ccc([N+](=O)[O-])cc3)C2C(=O)N1c1ccccc1 (stereo unspecified) . Output composite z-score: 0.185

// composite z-score lookup, compound = CN1C2C=C(CCCO)C(C3C(=O)N(C(N)=O)C(=O)C32)C1c1cccs1 (stereo unspecified) , result: 0.377

Noted for `C=C(COC)/C(=C/C[C@@H](OC(=O)c1ccncc1)c1ccc(OCCO)cc1)c1cnc2ccccc2c1` : its composite z-score reads 1.66

// recorded composite z-score for `NCCCCCCNC(=O)[C@H]1C[C@H]2C(=O)N[C@@H](Cc3ccccc3)C(=O)N2[C@H]1c1ccc(O)cc1` : 1.21

compound C=CC1c2cc(O)c(OC)cc2CCN1Cc1sc2ccccc2c1Cl (stereo unspecified) , composite z-score observed: 0.47

The compound `[N-]=[N+]=Nc1ccccc1C[C@@]1(C(=O)O)N=C(c2ccc(OCCCO)cc2)O[C@@H]1c1ccccc1` showed composite z-score equal to 0.24

Looking up `COC(=O)[C@@]1(Cc2ccccc2)[C@H]2c3cc(C(=O)N4CCCC4)[nH]c3C[C@H]2CN1C(=O)c1ccccc1` , I see its composite z-score listed as 1.96

// `CCOC(=O)C1=CC[C@@H](c2ccccc2C(F)(F)F)N(S(=O)(=O)c2ccc(C)cc2)C1` : composite z-score value = 1.5

According to the records, this compound `C[N+](C)(C)CCCC[C@@H]1NC(=O)[C@@H]2C[C@H](C(=O)O)[C@H](c3ccc(O)cc3)N2C1=O` displays composite z-score of 0.136

Lookup result for `CC(C)(C)OC(=O)CC[C@@]1(C(=O)O)N=C(c2ccc(OCCCO)cc2)O[C@@H]1c1ccccc1CN=[N+]=[N-]` ; measured composite z-score: 1.24

// composite z-score lookup, compound = `COc1ccc([Si](C)(C)[C@H]2[C@H](CCn3cc(CCO)nn3)O[C@@]3(C(=O)N(Cc4ccc(N5C(=O)c6cccc7cccc5c67)cc4)c4ccccc43)[C@@H]2C)cc1` , result: 0.537

Per the record, `COC(=O)Cn1c(C(=O)N2CCCC2)cc2c1C[C@H]1CN(C(=O)c3ccccc3)[C@@](Cc3ccc(F)cc3)(C(=O)OC)[C@@H]21` has composite z-score of 0.943

The recorded composite z-score for entry `O=C(O)[C@H](Cc1ccccc1)n1cc(-c2ccccn2)nn1` equals 0.524

The measurements presented in this section are drawn from PubChem BioAssay.
